B1: TPR t1 (parent)
chain: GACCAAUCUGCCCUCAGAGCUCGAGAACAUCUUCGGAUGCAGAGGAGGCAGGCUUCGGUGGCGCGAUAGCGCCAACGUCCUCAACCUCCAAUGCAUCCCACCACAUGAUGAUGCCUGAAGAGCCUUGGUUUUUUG

- Variants of: B1
- procedureText: polymerase ribozyme fitness, log enrichment relative to wild type (log ratio); higher = more active; in vitro selection for triplet polymerase activity
Record T whenever polymerase ribozyme fitness (log ratio) is at -2 or higher; record F when lower.

1) GACCAAUCUGCCCUCAGAGCACGAGAACAUCUUCGGAUGCAGUGGAGGCAGGCUUCGGUGGCGCGAUAGCGACAACGUCCUCAACCUCCAAUGCAUCCCACCACAUGAUGAUGCCUGAAGAGCCUUGGUUUUUUG [U21A A43U C72A]
F
2) GACCAAUCUGCCCUCAGAGCUCGAGAACAUCUUCGGAUGCGGAGGAGGCAGGCUUCGGUGGCGCGAUAGCGCCAACGUCCUCAACCUCCAUUGCAUCCCACCACAUGAUGAUGCCUGAAGAGCCUUGGUUUUUUG [A41G A91U]
T
3) GACCAAUCUGCCCUCAGAGCUCGCGAACAUCUUCGGAUGCAGAGGAGGCAGGCUUCGGUGGCGCGAUAGCGCAAACGUCCUCAACCUCCAAUGCAUCCCACCACAUGAUGAUGCCUGAAGAGCCUUGGUUUUUUG [A24C C73A]
F
4) GACCAAUCUGCCCUCAGAGCUCGAGAACAUCUUCGGAUGCAGAGGAGGCAGGCUUCGGUGGCGCGAUAGCGCCAACGUCCUCAACCUCCAAUGCAUCCCACCACAAGAUGAUGCCUAAAGAGCCUUGGUUUUUUG [U106A G117A]
T
5) GACCAAACUGCCCUCAGAGCUCGAGAACAUCUUCGGAUGCAGAGGAGGCAGGCUUCGGUGGCGCGAUAGCGCAAACGUCCUGAACCUCCAAUGCAUCCCACCACAUGAUGAUGCCUGAAGAGCCUUGGUUUUUUG [U7A C73A C82G]
T
6) GACCAAUCUGCCCUCAGAGCUCGAGAACAUCUUCGGAUGCAGAGGAGGCAGGCUUCGGUGGUGCGAUAGCGCCAACGUCCUCAAUCUCCAAUGCAUCCCACCACAUGAUGAUGCCUGAAGAGACUUGGUUUUUUG [C62U C85U C123A]
T

Task: Record GACCAAUCUGCUCUCAGAGCUCGAGAACAUCUUCGGAUGCAGAGGAGGCAGGCUUCGGUGGCGCGAUAGCGCCAACGUCCUCAACCUCCAAUGCAUCCCACCACAUGAUGACGCCUGAAGAGCCUUGGUUUUUUG [C12U U112C] ; criterion: polymerase ribozyme fitness (log ratio) no lower than -2. Met?
Result: T

Task: Quick one: GACCAAUCUGCCCUCAGAGCUCGAGAACAUCUUCGGAUGCAGAGGAGGCAGGCUUCGGUGGCGCGAUAGCGGCAACGUCCUCAACCUCCAAUGCCUCCCACCACAUGAUGAUGCCUGAAGAGCCUUGGUUUUUUG [C72G A95C]
Result: F

Task: Quick one: GACCAAUCUGCCCUCAGAGCUCGAGAACAUCUUCGGAUGCAGAGGAGGCAGGCUUCGGUGGCACGAUAGCGCCAACGUCCUCAACCACCAAUGCAUCCCACCACAUGAUGAUGCCUGAAGAGCCUUGGUUUUUUG [G63A U87A]
Result: T

Task: Quick one: GACCAAUCUGCCCUCAGAGCUCGAGAACAUCUUCGGAUGCAGAGGAGGCAGGCUUCGGUAGCGCGAUAGCGCCAACGUCCUCAACCUCCAAUGCAUCCCACCACAUGAUGAUGCCUGAAGCGCCUUGGUUUUUUG [G60A A121C]
Result: T

Task: Quick one: GACCAAUCUGCCCUCAGAGCUCGAGAAGAUUUUCGGAUGCAGAGGAGGCAGGCUUCGAUGGCACGAUAGCGCCAACGUCCUCAACCUCCAAUGCAUCCCACCACAUGAUGAUGCCUCAAGAGCCUUGGUUUUUUG [C28G C31U G58A G63A G117C]
Result: F

Task: Quick one: GACCAAUCUGCCCUCAGAGCUCGACAACAUCUUCGGAUGCAGAGGAGGCAGGAUUCGGUGGCGCGAUAGCGCCAACGUCCUCAACCUCCAAUGCAUCCCACCACAUGAUGAUGCCUGAAGAGCCUUGGUUUUUUG [G25C C53A]
Result: F

Task: Quick one: GACCAAUCUGCCCUCAGAGCUCGAGAACGUCUUCGGAUGCAGAGGAGGCAGGCUUCGGUGGCGCGAUAGCACCAACGUCCUCAACCUCCAAUGCAUCCCACCACAUGAUGAUGCCUGAAUAGCCUUGGUUUAUUG [A29G G71A G120U U132A]
Result: F

Task: Quick one: GAUCAAUCUGCCCUCAGAGCUCGAGAACAUCUUCGGAUGCAGAGGAGGCAGGCUUAGGUGGCGCGAUAACGACAACGUCCUCAACCUCCAAUGCAUCCCAUCACAUGAUGAAGCCUGAAGAGGCUUGGUUUUUUG [C3U C56A G69A C72A C101U U112A C123G]
Result: F
